From: the supplement of paper PMC11417369

test system: PfAP2-LT AP2 domain (GST-tagged); assay: gcPBM binding intensity (ln(normalized median fluorescence intensity)); higher = stronger DNA binding
Over roughly 25,000 sequences, “ln(normalized median fluorescence intensity)” has its median near 8.9; the highest 2% begin near 10. Shown is part of a subset that was picked to be rich in the highest values.
Record form. Attribute: gcPBM binding intensity (ln). Fill in for each entry.
Please give only the number in your answer, with no unit.

## Input Fill in reported gcPBM binding intensity (ln) for this entry: TATATTATTTTATATTGTACATACCAAATATTATAT [XGTACX_site1693]
## Output 8.68

## Input Fill in reported gcPBM binding intensity (ln) for this entry: TTTCTTAAATATATTGAGGAATAAAAAGAAGAAAAG [GTGCAC_negctrl_site281]
## Output 8.33

## Input Fill in reported gcPBM binding intensity (ln) for this entry: GAATAAATTGTATTGTGTACATATAAAAGCATCTAA [XGTACX_site8271]
## Output 8.8

## Input Fill in reported gcPBM binding intensity (ln) for this entry: TAATAATCCACAAGCACACACACACCCATATATATA [CACACA_site1267]
## Output 9.96

## Input Fill in reported gcPBM binding intensity (ln) for this entry: AATTTTTTTTTTTTTTTTTTTTATATATGTGTGTGT [XGTACX_negctrl_site129]
## Output 9.32

## Input Fill in reported gcPBM binding intensity (ln) for this entry: AATACCCATATCTTCACACATACATAATAAATTATA [CACACA_site5367]
## Output 8.81

## Input Fill in reported gcPBM binding intensity (ln) for this entry: TATAAAAAAATATATATATATATATATATATAAATA [TGCATGCA_negctrl_site22]
## Output 9.09

## Input Fill in reported gcPBM binding intensity (ln) for this entry: AAAAAAAAGAAAAAAACACACAATGGAAAAAATGTA [CACACA_site3675]
## Output 8.93

## Input Fill in reported gcPBM binding intensity (ln) for this entry: ATTAAACCGTGGGAGCACACACACACACACACACAT [TGCATGCA_negctrl_site72]
## Output 10.6

## Input Fill in reported gcPBM binding intensity (ln) for this entry: CATATAATTATTTTCACACATATAACTACATCTATA [CACACA_site5915]
## Output 8.82

## Input Fill in reported gcPBM binding intensity (ln) for this entry: TTGAAATATACGTAAGTAAATTTCATTTGGTTGTGT [XGTACX_negctrl_site600]
## Output 8.77

## Input Fill in reported gcPBM binding intensity (ln) for this entry: TGTGTCAAGTTTAATAAACGCATATAATATATATGA [CACACA_negctrl_site607]
## Output 8.59

## Input Fill in reported gcPBM binding intensity (ln) for this entry: TGAACATGTTAAAATAAACACACAGCTAAGGTTTTT [CACACA_site7934]
## Output 8.94

## Input Fill in reported gcPBM binding intensity (ln) for this entry: TAAACACCCATATAAACACACATACATACATACATA [CACACA_site5383]
## Output 9.53

## Input Fill in reported gcPBM binding intensity (ln) for this entry: TATATATATATATATTGTACACATACATGTAGTTTT [XGTACX_site4848]
## Output 9.48

## Input Fill in reported gcPBM binding intensity (ln) for this entry: TAAACATACAGATACACACACACACCCACAGAGACA [CACACA_site4429]
## Output 10.2

## Input Fill in reported gcPBM binding intensity (ln) for this entry: CTTATATGAAGCCTCTTTATTCATAAATAAGAATAA [TGCATGCA_negctrl_site120]
## Output 8.21

## Input Fill in reported gcPBM binding intensity (ln) for this entry: ATATTTATGGAATATACACACATGTATAATTACATA [CACACA_site7045]
## Output 8.83

## Input Fill in reported gcPBM binding intensity (ln) for this entry: TATAAACACCCATATAAACACACATACATACATACA [CACACA_site8791]
## Output 9.51
